recorded.endpoint: melting point

Bench note: what melting point did COc1ccc2c(CNCCCCC(=O)O)cc3cc4c(cc3c2c1)OCO4 show? 145 to 146 °C

Bench note: what melting point did COc1ccc2c(CN3CCC[C@H]3CO)cc3cc4c(cc3c2c1)OCO4 show? 138 to 139 °C

Bench note: what melting point did COc1ccc2c(CN3CCC(CCO)CC3)cc3cc4c(cc3c2c1)OCO4.Cl [Compound 32b] show? 153 to 155 °C

Bench note: what melting point did COc1ccc2c(CNCCCCCCO)cc3cc4c(cc3c2c1)OCO4.Cl [Compound 22b] show? 187 to 188 °C

Bench note: what melting point did O=C(O)CCCCCNC(=O)c1cc2cc3c(cc2c2cc(OCc4ccccc4)ccc12)OCO3 show? 198 to 200 °C

Bench note: what melting point did COc1ccc2c(CNCCCCCCO)cc3cc4c(cc3c2c1)OCO4 [Compound 22a] show? 145 to 147 °C

Bench note: what melting point did CCCCCC(CCCCCO)NCc1cc2cc3c(cc2c2cc(OC)ccc12)OCO3 (stereo not drawn) show? 122 to 124 °C

Bench note: what melting point did COc1ccc2c(C(=O)O)cc3cc4c(cc3c2c1)OCO4 show? 293 to 295 °C

Bench note: what melting point did COc1ccc2c(CNCCCCCC(=O)O)cc3cc(OC)c(OC)cc3c2c1 show? 133 to 134 °C

###

test system: ZR-751 (breast); assay: Cell growth inhibition assay (SRB), Example 2, ZR-751; format: cell-based, human; details: Homo sapiens, ZR-75-1, 72 h, Table 6; 72-h continuous treatment
Give measured EC50 for each item. Keep answers brief.
Give just the number in µM; leave the unit off.

// map COc1cccc2c1C(=O)c1c(O)c3c(c(O)c1C2=O)C[C@@](O)(C(=O)CO)C[C@@H]3O[C@H]1C[C@H](N)[C@H](O)[C@H](C)O1 [Doxorubicin, reference compound] to recorded EC50 (system: ZR-751 (breast)) 0.04

// map COc1ccc2c(CNCCCCCCO)cc3cc4c(cc3c2c1)OCO4 [Compound 22a] to recorded EC50 (system: ZR-751 (breast)) 0.13

// map COc1ccc2c(CN3CCC(CCO)CC3)cc3cc4c(cc3c2c1)OCO4 [Compound 32a] to recorded EC50 (system: ZR-751 (breast)) 0.03

// map CC[C@]1(O)C[C@H]2CN(CCc3c([nH]c4ccccc34)[C@@](C(=O)OC)(c3cc4c(cc3OC)N(C=O)[C@H]3[C@@](O)(C(=O)OC)[C@H](OC(C)=O)[C@]5(CC)C=CCN6CC[C@]43[C@@H]65)C2)C1 [Vincristine, reference compound] to recorded EC50 (system: ZR-751 (breast)) 0.04

// map CC[C@H]1CN2CCc3cc(OC)c(OC)cc3[C@@H]2C[C@@H]1C[C@H]1NCCc2cc(OC)c(OC)cc21 [Emetine, reference compound] to recorded EC50 (system: ZR-751 (breast)) 0.1

// map COc1cc([C@@H]2c3cc4c(cc3[C@@H](O[C@@H]3O[C@@H]5CO[C@@H](C)O[C@H]5[C@H](O)[C@H]3O)[C@H]3COC(=O)[C@H]23)OCO4)cc(OC)c1O [Etoposide (VP-16), Etoposide, reference compound] to recorded EC50 (system: ZR-751 (breast)) 3.1

###

tested on: human A549 lung cancer cell line; test: Cell growth inhibition assay (SRB), Example 2, A549; type: cell-based; conditions: Homo sapiens, A549, 72 h, Table 4; ED50, 72-h continuous treatment; NA = not active; read-out: A549 (μM), in vitro anticancer activity against A549 lung cancer cells
Give measured log10 EC50 for each item. Keep answers brief.
Note: values are log10 of EC50 expressed in µM.

Bench note: what log10 EC50 did COc1ccc2c(CN3CCC(CCO)CC3)cc3cc4c(cc3c2c1)OCO4 [Compound 32a] show? -0.82

Bench note: what log10 EC50 did CC[C@]1(O)C[C@H]2CN(CCc3c([nH]c4ccccc34)[C@@](C(=O)OC)(c3cc4c(cc3OC)N(C=O)[C@H]3[C@@](O)(C(=O)OC)[C@H](OC(C)=O)[C@]5(CC)C=CCN6CC[C@]43[C@@H]65)C2)C1 [Vincristine, reference compound] show? -1.40

Bench note: what log10 EC50 did COc1cc([C@@H]2c3cc4c(cc3[C@@H](O[C@@H]3O[C@@H]5CO[C@@H](C)O[C@H]5[C@H](O)[C@H]3O)[C@H]3COC(=O)[C@H]23)OCO4)cc(OC)c1O [Etoposide (VP-16), Etoposide, reference compound] show? 0.15

Bench note: what log10 EC50 did COc1ccc2c(CNCCCCCCO)cc3cc4c(cc3c2c1)OCO4 [Compound 22a] show? -0.70

Bench note: what log10 EC50 did COc1cccc2c1C(=O)c1c(O)c3c(c(O)c1C2=O)C[C@@](O)(C(=O)CO)C[C@@H]3O[C@H]1C[C@H](N)[C@H](O)[C@H](C)O1 [Doxorubicin, reference compound] show? -0.74

Bench note: what log10 EC50 did CC[C@H]1CN2CCc3cc(OC)c(OC)cc3[C@@H]2C[C@@H]1C[C@H]1NCCc2cc(OC)c(OC)cc21 [Emetine, reference compound] show? -1.40

###

system: human A549 lung cancer cell line; test: Cell growth inhibition assay (SRB), Example 2, A549; format: cell-based; settings: Table 6; 72-h continuous treatment; read-out: EC50 (μM) A549
Where a name gives a salt, the structure may show the parent alone.
recorded.endpoint: EC50 (µM)
Give just the number in µM; leave the unit off.

Bench note: what EC50 did COc1ccc2c3c(c4cc(OC)c(OC)cc4c2c1)C[C@H]1CCCN1C3 [Antofine, reference compound] show? 0.008

Bench note: what EC50 did COc1ccc2c(CN3CCCC[C@H]3CO)cc3cc4c(cc3c2c1)OCO4 [Compound 18a] show? 0.2

Bench note: what EC50 did COc1ccc2c(CN3CCCC[C@H]3CO)cc3cc4c(cc3c2c1)OCO4 [Compound 18b, hydrochloride] show? 0.16

Bench note: what EC50 did COc1ccc2c(CN3CCC(CO)CC3)cc3cc4c(cc3c2c1)OCO4 [Compound 24a] show? 0.08

###

tested on: human A549 lung cancer cell line; assay: Cell growth inhibition assay (SRB), Example 1; format: cell-based; settings: table footnotes of Example 1; A549
Give measured EC50 for each item. Keep answers brief.
Write the numeric value and follow it with the unit.

Bench note: what EC50 did COc1ccc2c(CN3CCCC[C@H]3CO)cc3cc(OC)c(OC)cc3c2c1 [Compound 38] show? 6.3 µM

Bench note: what EC50 did COc1ccc2c(CN3CCCC[C@H]3C(=O)O)cc3cc(OC)c(OC)cc3c2c1 [Compound 37] show? 9.7 µM

###

Give measured melting point for each item. Keep answers brief.

Bench note: what melting point did COc1ccc2c(CN3CCC(CCO)CC3)cc3cc4c(cc3c2c1)OCO4 [Compound 32a] show? 148 to 149 °C

Bench note: what melting point did O=C(O)[C@@H]1CCCN1Cc1cc2cc3c(cc2c2cc(OCc4ccccc4)ccc12)OCO3 show? 147 to 149 °C

Bench note: what melting point did O=C(O)CCCCCNCc1cc2cc3c(cc2c2cc(OCc4ccccc4)ccc12)OCO3 show? 184 to 186 °C

Bench note: what melting point did CC(CCCCO)NCc1cc2cc3c(cc2c2cc(OCc4ccccc4)ccc12)OCO3 (centres unmarked) show? 175 to 177 °C

Bench note: what melting point did O=C(O)[C@@H]1CCCN1C(=O)c1cc2cc3c(cc2c2cc(O)ccc12)OCO3 show? 230 to 231 °C

Bench note: what melting point did O=C(O)c1cc2cc3c(cc2c2cc(OCc4ccccc4)ccc12)OCO3 show? 263 to 265 °C

Bench note: what melting point did COc1ccc2c(C(=O)O)cc3cc(OC)c(OC)cc3c2c1 show? 241 to 243 °C

Bench note: what melting point did COc1ccc2c(CNCCCCCC(=O)O)cc3cc4c(cc3c2c1)OCO4 show? 167 to 169 °C

Bench note: what melting point did COc1ccc2c(CNCCCCCCCCCCC(=O)O)cc3cc4c(cc3c2c1)OCO4 show? 146 to 148 °C

Bench note: what melting point did O=C(O)CCCCNCc1cc2cc3c(cc2c2cc(OCc4ccccc4)ccc12)OCO3 show? 197 to 199 °C

Bench note: what melting point did COc1ccc2c(CNCCCCCO)cc3cc4c(cc3c2c1)OCO4 show? 125 to 126 °C

###

Give measured EC50 for each item. Keep answers brief.
tested on: human A549 lung cancer cell line; experiment: Cell growth inhibition assay (SRB), Example 2, A549; type: cell-based; details: Table 4; ED50, 72-h continuous treatment; NA = not active; read-out: A549 (μM), in vitro anticancer activity against A549 lung cancer cells
Write the numeric value and follow it with the unit.

Bench note: what EC50 did COc1ccc2c(CN3CCC(CO)CC3)cc3cc4c(cc3c2c1)OCO4 [Compound 24a] show? 0.08 µM

Bench note: what EC50 did COc1ccc2c3c(c4cc(OC)c(OC)cc4c2c1)C[C@H]1CCCN1C3 [Antofine, reference compound] show? 0.008 µM
